I'd be grateful if you could share measured EC50 for these entries.
Target: Prostaglandin E2 receptor EP2 subtype (Homo sapiens)
Experiment: Agonist activity at human EP2 receptor expressed in HEK293T/17 cells assessed as increase in intracellular cAMP level incubated for 30 mins by ELISA
Format: functional, cell-based

-- ask Need EC50 of "CCC#CC[C@H](C)[C@H](O)/C=C/[C@H]1CC(F)(F)C(=O)N1CCCCCCC(=O)O" , thanks.
-- reply > 10 µM

-- ask Need EC50 of "COCc1cccc(C[C@H](O)/C=C/[C@H]2[C@H](O)CC(=O)[C@@H]2CCSCCCC(=O)O)c1" , thanks.
-- reply 10 µM

-- ask Need EC50 of "CCCCC[C@H](O)/C=C/[C@H]1CC(F)(F)C(=O)N1CCCCCCC(=O)O" , thanks.
-- reply > 10 µM

-- ask Need EC50 of "CCC#CC[C@H](C)[C@H](O)/C=C/[C@H]1CCC(=O)N1CCCCCCC(=O)O" , thanks.
-- reply > 10 µM

-- ask Need EC50 of "CCCCC[C@H](O)/C=C/[C@H]1CCC(=O)N1CCCCCCC(=O)O" , thanks.
-- reply > 10 µM

* * *

Test: Apparent permeability across basolateral to apical side in human Caco2 cells at 5 uM after 120 mins by LC-MS/MS analysis
Type: ADME, cell-based
Details: Caco-2
reported.endpoint: Papp B→A at 2 h, 5 µM (×10⁻⁶ cm/s)
The reply should contain only the number, in ×10⁻⁶ cm/s.

-- ask Need Papp B→A at 2 h, 5 µM of "CCC#CC[C@H](C)[C@H](O)/C=C/[C@H]1CCC(=O)N1CCCCCCC(=O)O" , thanks.
-- reply 10.1

-- ask Need Papp B→A at 2 h, 5 µM of "CCC#CC[C@H](C)[C@H](O)/C=C/[C@H]1CC(F)(F)C(=O)N1CCCCCCC(=O)O" , thanks.
-- reply 14.5

* * *

I'd be grateful if you could share measured EC50 for these entries.
Target: Prostaglandin E2 receptor EP2 subtype (Homo sapiens, UniProt P43116)
Sequence (P43116 whole entry): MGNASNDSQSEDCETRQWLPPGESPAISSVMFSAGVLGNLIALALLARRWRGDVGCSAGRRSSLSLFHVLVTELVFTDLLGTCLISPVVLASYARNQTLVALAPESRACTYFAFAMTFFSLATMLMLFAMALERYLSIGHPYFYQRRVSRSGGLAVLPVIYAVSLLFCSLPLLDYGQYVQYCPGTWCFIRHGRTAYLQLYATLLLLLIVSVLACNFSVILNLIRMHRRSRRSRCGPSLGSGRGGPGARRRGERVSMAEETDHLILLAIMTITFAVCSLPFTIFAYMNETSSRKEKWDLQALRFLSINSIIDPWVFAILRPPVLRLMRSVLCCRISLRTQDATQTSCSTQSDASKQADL
Experiment: Agonist activity at human EP2 receptor expressed in HEK293T/17 cells assessed as increase in GalphaS-mediated CREB activation measured after 6 to 24 hrs by SEAP reporter gene-based chemiluminescence assay
Type: functional, cell-based

-- ask Need EC50 of "CCCCC[C@H](O)/C=C/[C@H]1CC(F)(F)C(=O)N1CCCCCCC(=O)O" , thanks.
-- reply 2.27 µM

-- ask Need EC50 of "COCc1cccc(C[C@H](O)/C=C/[C@H]2[C@H](O)CC(=O)[C@@H]2CCSCCCC(=O)O)c1" , thanks.
-- reply 0.61 µM

-- ask Need EC50 of "CCC#CC[C@H](C)[C@H](O)/C=C/[C@H]1CCC(=O)N1CCCCCCC(=O)O" , thanks.
-- reply > 10 µM

-- ask Need EC50 of "CCC#CC[C@H](C)[C@H](O)/C=C/[C@H]1CC(F)(F)C(=O)N1CCCCCCC(=O)O" , thanks.
-- reply 7.36 µM

-- ask Need EC50 of "CCCCC[C@H](O)/C=C/[C@H]1CCC(=O)N1CCCCCCC(=O)O" , thanks.
-- reply > 10 µM

* * *

Assay: Apparent permeability across basolateral to apical side in MDCK-MDR1 cells assessed as drug recovery
Type: ADME, cell-based, Canis lupus familiaris
Conditions: dog, read-out: Drug recovery
reported.endpoint: recovery (%)
The reply should contain only the number, in %.

-- ask Need recovery of "CCC#CC[C@H](C)[C@H](O)/C=C/[C@H]1CC(F)(F)C(=O)N1CCCCCCC(=O)O" , thanks.
-- reply 93

* * *

Assay: Protein binding in human plasma at 10 uM after 4 hrs by HPLC-MS/MS-based equilibrium dialysis method
Assay type: ADME, cell-free
Conditions: read-out: PPB (converted)
reported.endpoint: fraction unbound at 4 h, 10 µM
// no unit string in output, number only

-- ask Need fraction unbound at 4 h, 10 µM of "CCC#CC[C@H](C)[C@H](O)/C=C/[C@H]1CC(F)(F)C(=O)N1CCCCCCC(=O)O" , thanks.
-- reply 0.416

-- ask Need fraction unbound at 4 h, 10 µM of "CCC#CC[C@H](C)[C@H](O)/C=C/[C@H]1CCC(=O)N1CCCCCCC(=O)O" , thanks.
-- reply 0.558

* * *

Molecular target: Prostaglandin E2 receptor EP4 subtype (Homo sapiens, UniProt P35408)
Sequence (P35408 whole entry): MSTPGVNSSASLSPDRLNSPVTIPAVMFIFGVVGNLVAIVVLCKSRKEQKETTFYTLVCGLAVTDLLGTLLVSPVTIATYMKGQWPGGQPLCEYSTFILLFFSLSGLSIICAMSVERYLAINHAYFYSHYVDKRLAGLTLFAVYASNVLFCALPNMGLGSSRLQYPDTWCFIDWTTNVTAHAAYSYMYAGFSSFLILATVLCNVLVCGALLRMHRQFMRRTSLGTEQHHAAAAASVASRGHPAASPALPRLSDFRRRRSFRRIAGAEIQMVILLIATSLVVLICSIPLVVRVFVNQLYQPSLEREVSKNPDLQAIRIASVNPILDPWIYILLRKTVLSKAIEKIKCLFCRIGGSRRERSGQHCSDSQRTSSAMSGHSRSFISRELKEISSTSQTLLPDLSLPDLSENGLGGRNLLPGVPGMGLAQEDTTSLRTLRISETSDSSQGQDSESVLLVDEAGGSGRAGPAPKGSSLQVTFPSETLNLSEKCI
Experiment: Agonist activity at human EP4 receptor expressed in HEK293T/17 cells assessed as increase in GalphaS-mediated CREB activation measured after 6 to 24 hrs by SEAP reporter gene-based chemiluminescence assay
Format: functional, cell-based
I'd be grateful if you could share measured log10(EC50) for these entries.
// units: nM (pre-log); metric: EC50; scale: log10

-- ask Need log10(EC50) of "CCCCC[C@H](O)/C=C/[C@H]1CCC(=O)N1CCCCCCC(=O)O" , thanks.
-- reply -1.19

-- ask Need log10(EC50) of "COCc1cccc(C[C@H](O)/C=C/[C@H]2[C@H](O)CC(=O)[C@@H]2CCSCCCC(=O)O)c1" , thanks.
-- reply -2.00

-- ask Need log10(EC50) of "CCCCC[C@H](O)/C=C/[C@H]1CC(F)(F)C(=O)N1CCCCCCC(=O)O" , thanks.
-- reply -1.68

-- ask Need log10(EC50) of "CCC#CC[C@H](C)[C@H](O)/C=C/[C@H]1CCC(=O)N1CCCCCCC(=O)O" , thanks.
-- reply -0.32

-- ask Need log10(EC50) of "CCC#CC[C@H](C)[C@H](O)/C=C/[C@H]1CC(F)(F)C(=O)N1CCCCCCC(=O)O" , thanks.
-- reply -1.06

* * *

Assay: Intrinsic clearance in human hepatocytes at 0.1 uM by HPLC-MS/MS analysis
Type: ADME, cell-based, Hepatocyte
reported.endpoint: CLH

-- ask Need CLH of "CCC#CC[C@H](C)[C@H](O)/C=C/[C@H]1CC(F)(F)C(=O)N1CCCCCCC(=O)O" , thanks.
-- reply < 8.2 µL/min/10^6 cells

-- ask Need CLH of "CCC#CC[C@H](C)[C@H](O)/C=C/[C@H]1CCC(=O)N1CCCCCCC(=O)O" , thanks.
-- reply < 8.2 µL/min/10^6 cells

* * *

I'd be grateful if you could share measured Ki for these entries.
Target: Prostaglandin E2 receptor EP2 subtype (Homo sapiens, UniProt P43116)
Experiment: Displacement of [3H]PGE2 from human recombinant EP2 receptor expressed in HEK293 cell membranes after 120 mins by liquid scintillation counting method
The reply should contain only the number, in µM.

-- ask Need Ki of "CCC#CC[C@H](C)[C@H](O)/C=C/[C@H]1CC(F)(F)C(=O)N1CCCCCCC(=O)O" , thanks.
-- reply 4.97

-- ask Need Ki of "CCCCC[C@H](O)/C=C/[C@H]1CC(F)(F)C(=O)N1CCCCCCC(=O)O" , thanks.
-- reply 0.329

-- ask Need Ki of "CCC#CC[C@H](C)[C@H](O)/C=C/[C@H]1CCC(=O)N1CCCCCCC(=O)O" , thanks.
-- reply 12.2

-- ask Need Ki of "CCCCC[C@H](O)/C=C/[C@H]1CCC(=O)N1CCCCCCC(=O)O" , thanks.
-- reply 1.46

* * *

Test: Intrinsic clearance in human liver microsomes at 0.1 uM by HPLC-MS/MS analysis
Type: ADME, Microsome
Details: read-out: CLH
reported.endpoint: microsomal CLint at 0.1 µM

-- ask Need microsomal CLint at 0.1 µM of "CCC#CC[C@H](C)[C@H](O)/C=C/[C@H]1CCC(=O)N1CCCCCCC(=O)O" , thanks.
-- reply < 116 µL/min/mg

-- ask Need microsomal CLint at 0.1 µM of "CCC#CC[C@H](C)[C@H](O)/C=C/[C@H]1CC(F)(F)C(=O)N1CCCCCCC(=O)O" , thanks.
-- reply < 116 µL/min/mg

* * *

Assay: Apparent permeability across apical to basolateral side in human Caco2 cells assessed as drug recovery at 5 uM after 120 mins by LC-MS/MS analysis
Type: ADME, cell-based
Settings: Caco-2, read-out: Drug recovery
I'd be grateful if you could share measured recovery at 2 h, 5 µM for these entries.
The reply should contain only the number, in %.

-- ask Need recovery at 2 h, 5 µM of "CCC#CC[C@H](C)[C@H](O)/C=C/[C@H]1CCC(=O)N1CCCCCCC(=O)O" , thanks.
-- reply 103

-- ask Need recovery at 2 h, 5 µM of "CCC#CC[C@H](C)[C@H](O)/C=C/[C@H]1CC(F)(F)C(=O)N1CCCCCCC(=O)O" , thanks.
-- reply 94

* * *

I'd be grateful if you could share measured Ki for these entries.
Target: Prostaglandin E2 receptor EP4 subtype (Homo sapiens)
Test: Displacement of [3H]PGE2 from human recombinant EP4 receptor expressed in HEK293 cell membranes after 120 mins by liquid scintillation counting method
// unit must come after the numeric part

-- ask Need Ki of "COCc1cccc(C[C@H](O)/C=C/[C@H]2[C@H](O)CC(=O)[C@@H]2CCSCCCC(=O)O)c1" , thanks.
-- reply 0.396 nM

-- ask Need Ki of "CCCCC[C@H](O)/C=C/[C@H]1CCC(=O)N1CCCCCCC(=O)O" , thanks.
-- reply 1.61 nM

-- ask Need Ki of "CCC#CC[C@H](C)[C@H](O)/C=C/[C@H]1CCC(=O)N1CCCCCCC(=O)O" , thanks.
-- reply 2.35 nM

-- ask Need Ki of "CCCCC[C@H](O)/C=C/[C@H]1CC(F)(F)C(=O)N1CCCCCCC(=O)O" , thanks.
-- reply 0.2 nM

-- ask Need Ki of "CCC#CC[C@H](C)[C@H](O)/C=C/[C@H]1CC(F)(F)C(=O)N1CCCCCCC(=O)O" , thanks.
-- reply 0.378 nM

Measured values drawn from ChEMBL document CHEMBL4385611 for this set.
